- method-description: small-molecule microarray binders of probe aDKK1, primary screen, biochemical, biotinylated probe, 635/667 nm fluorescence (AID 1099);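 also: score merges 667nm spot fluorescence with signal to noise across triplicate slides; reference of the scale not given here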
- setup-conditions: higher = more signal
Field: composite z-score. Provide a value for each of the molecules that follow.
Give bare numbers.

These recorded examples may help you get a feel for the data.
| molecule | composite z-score |
| --- | --- |
| CO[C@@H]1COC(=O)[C@@H](C)COC(=O)[C@@H](C)NC(=O)CC=C[C@@H]1C | -0.351 |
| O=C1CCCC(C2=CCCCC2=O)C1 (configuration not stated) | -0.356 |
| CO[C@H]1COC(=O)[C@@H](C)COC(=O)[C@H](COCc2ccccc2)NC(=O)CC=C[C@H]1C | -0.492 |
| O=C1[C@H]2[C@H]3[C@H](O)[C@H](O)CC(=NOCc4ccccc4)[C@@H]3CC[C@H]2C(=O)N1Cc1ccc2c(c1)OCO2 | -0.225 |
| CCOC(=O)[C@H](CC(C)C)NC(=O)CCC1CC(OC(=O)NCCc2ccc(F)cc2)CC2(CCCC(COC(=O)NCCC(C)C)O2)O1 (some centres not stated) | -0.149 |
| CCc1cc2c(nc1CC)CCN(CCC(C)=NO[C@H](C)c1cn([C@@H]3COC[C@H]3O)nn1)C2 | -0.156 |
| O=C1[C@H]2[C@H]3[C@H](O)[C@H](O)CC(=NOC[C@@H](O)COCc4ccco4)[C@H]3CC[C@H]2C(=O)N1c1ccc(F)cc1F | 0.0973 |
| CC(=O)OC[C@H]1OC(ON=CC[C@@H]2C=C[C@H](OC(C)=O)[C@@H](COC(C)=O)O2)[C@H](OC(C)=O)[C@@H](OC(C)=O)[C@@H]1OC(C)=O (some centres not stated) | -0.0393 |
| CO[C@@H]1C=CCC(=O)N2CCC[C@H]2C(=O)OC[C@@H](C)C(=O)OC[C@H]1C | -0.21 |
| COC(=O)NCC=Cc1nc(CCCO)co1 | -0.414 |

// each listed molecule needs a value for composite z-score
1. COC(=O)CC=C[C@@H](C)[C@@H](C=NOC[C@H]1O[C@H](c2ccccc2)C=C[C@@H]1Oc1ccc(OC)cc1)OC
2. C[C@H]1COC(=O)[C@@H]2CCCN2C(=O)[C@@H](C)COC(=O)[C@H](Cc2ccccc2)NC1=O
3. Cc1ccc(S(=O)(=O)N[C@H]2COC(=O)CC=C[C@H](C)[C@@H](NS(=O)(=O)c3ccc(C)cc3)COC(=O)CC=C[C@@H]2C)cc1
4. CCCNC(=O)OC[C@H]1O[C@H](CCON=C(C)CCC(=O)OC[C@H]2O[C@H](c3ccccc3)C=C[C@@H]2Oc2ccc(OC)cc2)C=C[C@@H]1Oc1ccc(OC)cc1
5. CCC=CCCC(OC(=O)c1ccc(Br)cc1)C1=CCCCC1=O (configuration not stated)

Result:
-0.242
-0.275
-0.217
-0.183
-0.305

Quick batch: composite z-score for everything below.
1. CCCNC(=O)OC[C@H]1O[C@H](CCON=C(C)CCN2CCc3nc(CC)c(CC)cc3C2)C=C[C@@H]1Oc1ccc(OC)cc1
2. CCCCC#C[C@@H]1C=C[C@H](Oc2ccc(C(=O)OC)cc2)[C@@H](COC(=O)OCC)O1

Result:
-0.231
0.015
